B1: PRPH (parent)
chain: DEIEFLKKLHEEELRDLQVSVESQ

variants of: B1; assay: protein stability index of a GFP-peptide fusion (GPS, HEK-293T) (PSI 1-6); higher = more stable; conditions: c terminus: a fixed tail appended;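 also: lentivirally expressed fusions sorted by FACS into six bins by GFP to DsRed ratio, PSI derived from sequencing read proportions per bin multiplied by bin number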

- Variant Name: "K8I"
  protein stability index: 4.35
- Variant Name: "D1T"
  protein stability index: 4.71
- Variant Name: "S23W"
  protein stability index: 3.45
- Variant Name: "E22Q"
  protein stability index: 4.37
- Variant Name: "L17Q"
  protein stability index: 5.15
- Variant Name: "K7F"
  protein stability index: 2.11
- Variant Name: "Q18W"
  protein stability index: 3.39
- Variant Name: "Q18K"
  protein stability index: 4.63
- Variant Name: "E12N"
  protein stability index: 4.5
- Variant Name: "R15N"
  protein stability index: 4.91
- Variant Name: "D16G"
  protein stability index: 4.95
- Variant Name: "F5Q"
  protein stability index: 5.41
- Variant Name: "F5P"
  protein stability index: 5.22
- Variant Name: "S23P"
  protein stability index: 4.71
- Variant Name: "V21I"
  protein stability index: 4.13
- Variant Name: "E12A"
  protein stability index: 4.69
- Variant Name: "E2I"
  protein stability index: 2.1
- Variant Name: "L14M"
  protein stability index: 5.02
- Variant Name: "K8E"
  protein stability index: 4.37
- Variant Name: "D1C"
  protein stability index: 3.41
- Variant Name: "D1N"
  protein stability index: 4.78
- Variant Name: "S23E"
  protein stability index: 4.67
- Variant Name: "V21G"
  protein stability index: 4.92
- Variant Name: "L14H"
  protein stability index: 5.31
- Variant Name: "L9S"
  protein stability index: 5.4
- Variant Name: "S20I"
  protein stability index: 4.27
- Variant Name: "L6S"
  protein stability index: 5.12
- Variant Name: "S20C"
  protein stability index: 5.06
- Variant Name: "H10V"
  protein stability index: 3.52
- Variant Name: "I3S"
  protein stability index: 5.42
- Variant Name: "E4I"
  protein stability index: 4.12
- Variant Name: "K8G"
  protein stability index: 4.55
- Variant Name: "I3Q"
  protein stability index: 5.08
- Variant Name: "E2H"
  protein stability index: 4.08
- Variant Name: "R15I"
  protein stability index: 4.79
- Variant Name: "E4V"
  protein stability index: 4.21
- Variant Name: "Q18I"
  protein stability index: 4.4
- Variant Name: "F5W"
  protein stability index: 4.42
- Variant Name: "Q24A"
  protein stability index: 4.57
- Variant Name: "E11N"
  protein stability index: 4.57
- Variant Name: "E12F"
  protein stability index: 4.07
- Variant Name: "L17C"
  protein stability index: 4.92
- Variant Name: "L6A"
  protein stability index: 5.48
- Variant Name: "F5Y"
  protein stability index: 4.58
- Variant Name: "D1V"
  protein stability index: 4.31
- Variant Name: "E13A"
  protein stability index: 3.9
- Variant Name: "R15S"
  protein stability index: 4.8
- Variant Name: "D1Y"
  protein stability index: 4.32
- Variant Name: "L14D"
  protein stability index: 5.57
- Variant Name: "Q18M"
  protein stability index: 4.37
- Variant Name: "H10N"
  protein stability index: 4.16
- Variant Name: "Q24Y"
  protein stability index: 3.64
- Variant Name: "E11H"
  protein stability index: 4.42
- Variant Name: "L6D"
  protein stability index: 5.56
- Variant Name: "D1L"
  protein stability index: 4.63
- Variant Name: "D16H"
  protein stability index: 4.67
- Variant Name: "K8Y"
  protein stability index: 4.23
- Variant Name: "F5A"
  protein stability index: 4.69
- Variant Name: "V19W"
  protein stability index: 5.12
- Variant Name: "F5H"
  protein stability index: 4.85
- Variant Name: "Q18S"
  protein stability index: 5.08
- Variant Name: "F5C"
  protein stability index: 5.15
- Variant Name: "L14I"
  protein stability index: 4.66
- Variant Name: "V19C"
  protein stability index: 5.23
- Variant Name: "L9D"
  protein stability index: 5.27
- Variant Name: "E2S"
  protein stability index: 3.65
- Variant Name: "V21D"
  protein stability index: 5.43
- Variant Name: "V21F"
  protein stability index: 4.43
- Variant Name: "E11S"
  protein stability index: 4.52
- Variant Name: "V21A"
  protein stability index: 5.45
- Variant Name: "E2N"
  protein stability index: 4.67
- Variant Name: "E13P"
  protein stability index: 5.05
- Variant Name: "E2G"
  protein stability index: 3.56
- Variant Name: "E12L"
  protein stability index: 4.04
- Variant Name: "L17S"
  protein stability index: 4.9
- Variant Name: "K8T"
  protein stability index: 4.78
- Variant Name: "D1M"
  protein stability index: 4.18
- Variant Name: "E12M"
  protein stability index: 4.33
- Variant Name: "R15K"
  protein stability index: 4.59
- Variant Name: "L17M"
  protein stability index: 4.97
- Variant Name: "E2R"
  protein stability index: 4.39
- Variant Name: "V19T"
  protein stability index: 5.19
- Variant Name: "Q24S"
  protein stability index: 4.26
- Variant Name: "Q24V"
  protein stability index: 4.23
- Variant Name: "E22L"
  protein stability index: 3.88
- Variant Name: "E12C"
  protein stability index: 4.54
- Variant Name: "L6F"
  protein stability index: 4.42
- Variant Name: "R15V"
  protein stability index: 4.94
- Variant Name: "V19S"
  protein stability index: 4.6
- Variant Name: "D16R"
  protein stability index: 3.96
- Variant Name: "Q24F"
  protein stability index: 3.91
